Numbers sourced from ChEMBL document CHEMBL2375318.

# Tested on: Aspergillus fumigatus
# procedure-details: Antimicrobial activity against Aspergillus fumigatus clinical isolate after 18 to 24 hrs by micro-dilution method
# Format: functional
parameter-measured: MIC (µg/mL)

Cc1cc(C)cc(-n2cc(CN(Cc3cn(-c4cc(C)cc(C)c4)nn3)c3nc4ccccc4s3)nn2)c1 :: 12.5
Clc1ccc(-n2cc(CN(Cc3cn(-c4ccc(Cl)cc4Cl)nn3)c3nc4ccccc4s3)nn2)c(Cl)c1 :: 1.56

* * *

compounds and their reported MIC
# Test system: Escherichia coli
# procedure-details: Antimicrobial activity against Escherichia coli ATCC 35218 after 18 to 24 hrs by micro-dilution method
# Type: functional
parameter-measured: MIC (µg/mL)

Clc1ccccc1-n1cc(CN(Cc2cn(-c3ccccc3Cl)nn2)c2nc3ccccc3s2)nn1 :: 12.5
Cc1cc(C)cc(-n2cc(CN(Cc3cn(-c4cc(C)cc(C)c4)nn3)c3nc4ccccc4s3)nn2)c1 :: 100
Fc1ccc(-n2cc(CN(Cc3cn(-c4ccc(F)cc4Cl)nn3)c3nc4ccccc4s3)nn2)c(Cl)c1 :: 3.12
COc1cccc(-n2cc(CN(Cc3cn(-c4cccc(OC)c4)nn3)c3nc4ccccc4s3)nn2)c1 :: 50
Cc1cc(F)ccc1-n1cc(CN(Cc2cn(-c3ccc(F)cc3C)nn2)c2nc3ccccc3s2)nn1 :: 50

* * *

# Test system: Candida albicans
# procedure-details: Antifungal activity against Candida albicans ATCC 90028 after 18 to 24 hrs by micro-dilution metho
# Format: functional
parameter-measured: MIC (µg/mL)

COc1cccc(-n2cc(CN(Cc3cn(-c4cccc(OC)c4)nn3)c3nc4ccccc4s3)nn2)c1 :: 6.25
Fc1ccc(-n2cc(CN(Cc3cn(-c4ccc(F)cc4Cl)nn3)c3nc4ccccc4s3)nn2)c(Cl)c1 :: 50

* * *

# Tested on: Aspergillus fumigatus
# procedure-details: Antimicrobial activity against Aspergillus fumigatus clinical isolate after 18 to 24 hrs by micro-dilution method
# Format: functional
parameter-measured: MIC

CCc1ccc(-n2cc(CN(Cc3cn(-c4ccc(CC)cc4)nn3)c3nc4ccccc4s3)nn2)cc1 :: > 100 µg/mL
Fc1ccc(-n2cc(CN(Cc3cn(-c4ccc(F)cc4F)nn3)c3nc4ccccc4s3)nn2)c(F)c1 :: > 100 µg/mL
Cc1ccc(-n2cc(CN(Cc3cn(-c4ccc(C)c(C)c4)nn3)c3nc4ccccc4s3)nn2)cc1C :: > 100 µg/mL

* * *

# Tested on: Candida albicans
# procedure-details: Antifungal activity against Candida albicans ATCC 90028 after 18 to 24 hrs by micro-dilution metho
# Format: functional
compounds and their reported MIC
parameter-measured: MIC

Clc1ccccc1-n1cc(CN(Cc2cn(-c3ccccc3Cl)nn2)c2nc3ccccc3s2)nn1 :: > 100 µg/mL
COc1cc(-n2cc(CN(Cc3cn(-c4cc(OC)c(OC)c(OC)c4)nn3)c3nc4ccccc4s3)nn2)cc(OC)c1OC :: > 100 µg/mL
Fc1cccc(-n2cc(CN(Cc3cn(-c4cccc(F)c4)nn3)c3nc4ccccc4s3)nn2)c1 :: > 100 µg/mL
